- ASSAYED_SYSTEM: HIV reverse transcriptase (Human immunodeficiency virus type 1 group M subtype B, UniProt P04585)
- Construct: HIV reverse transcriptase has an RNase H domain at the C-terminus of its p66 subunit
- EXPERIMENT_SUMMARY: Inhibition of HIV reverse transcriptase (RNase H fluorescent probe assay), Table I
- Assay type: biochemical
pIC50: −log10 of the molar value.
MEASURED_PARAMETER: pIC50

# COMPOUND, CMP, ENDPOINT_VALUE
rows = [
    ("c1ccc(CSc2nnc(-c3cccs3)n2Cc2ccccc2)cc1 [Example 2]", ">", 6.70),
    ("COc1ccc(CSc2nnc(-c3ccco3)n2Cc2ccccc2)cc1 [Example 9]", "=", 5.42),
    ("c1ccc(Cn2c(SCc3ccncc3)nnc2-c2cccs2)cc1 [Example 3]", "=", 6.70),
    ("c1ccc(CSc2nnc(-c3ccccn3)n2Cc2ccccc2)cc1 [Example 7]", "=", 5.77),
    ("COc1ccc(Cn2c(SCc3ccccc3)nnc2-c2ccco2)cc1 [Example 18]", "=", 4.34),
    ("c1ccc(CSc2nnc(-c3ccco3)n2Cc2ccccc2)cc1 [Example 6]", "=", 5.92),
    ("COc1ccc(CSc2nnc(-c3cccs3)n2Cc2ccccc2)cc1 [Example 13]", "=", 5.23),
]
